Recorded growth values for a group of compounds are listed next.
Tested on: RPMI-8226 leukemia
Experiment: NCI-60 one-dose screen, 48 h (100 = growth as untreated, 0 = no growth, -100 = all killed)
Settings: 10 µM unless noted
About 83,000 compounds went through this panel and 20% of them were active in at least one assay; those are over-represented in the sample as a whole.
property: growth (%)

# compound, quantitative result
data = [
    ("NC(=S)N/N=C/C(=O)O", 48.1),
    ("Cc1ccc(C)c2c1C(=O)OC2=O", 109),
    ("C[C@@H]1CC[C@@H]2[C@@H]1[C@H](OC(=O)c1ccc3ccccc3c1)[C@]1(C3CCCCC3)C[C@@H](OC(=O)CO)[C@@]2(C)O1", 31.4),
    ("CCn1nc(C#Cc2c(C)ccc3c(Nc4ccc(Cl)cc4)nccc23)c2c(N)ncnc21", 2.72),
    ("Cc1cccc(-c2cc(O)c(C(=O)N3CCOCC3)s2)c1", 41.7),
    ("Nc1ccc(S(=O)(=O)Nc2ccsc2-c2nc(-c3ccccc3)no2)cc1", 65.8),
    ("Nc1c(C(=O)c2ccc(Cl)s2)sc2nc3c(cc12)CCCC3", 90.9),
    ("O=C(c1ccccc1)c1ccc(N2C(=O)C3C4c5ccccc5C(/C=C/C(=O)c5ccccn5)(c5ccccc54)C3C2=O)cc1 (centres undefined)", 3.95),
    ("O=C(c1ccccc1)c1ccc(Cl)c([N+](=O)[O-])c1", 82.3),
    ("O=S(=O)(Nc1ccsc1-c1nc(-c2ccccc2)no1)c1cc(Cl)cc(Cl)c1", 82.6),
    ("CCOC(=O)c1c(C)[nH]c(C(=O)CCC(=O)OC)c1C", 95.8),
    ("C[C@@H](C[C@H](CCOCc1cccnc1)c1ccccc1)c1cc2ccccc2o1", 75),
    ("COc1cc2c(c(OC)c1OC)C(=O)/C(=C/c1cc(C)c(O)c(C)c1)S2", 21.8),
    ("CCNCCNc1cc(-c2ccc(F)cc2)c(C#N)c2nc3ccccc3n12", 36.4),
    ("COc1cc(C(=O)/C=C/c2c(C(F)(F)F)nc3ccccn23)cc(OC)c1OC", -14.6),
    ("Cc1cc(Cl)nc(N(CCCNc2ccnc3cc(Cl)ccc23)Cc2ccccn2)n1", 1.09),
    ("C[C@@H]1C(=O)N(C[C@H](Cc2ccccc2)N(Cc2ccccc2)Cc2ccccc2)[C@]1(Cc1ccccc1)C(=O)OC(C)(C)C", 36.8),
    ("CN1CCN(CCCOc2ccc3nc(Nc4cc(Cl)cc(Cl)c4)ccc3c2)CC1", -35.1),
    ("Cc1ccc(Nc2ccc(Nc3ccc(C)cc3S(=O)(=O)O)c3c2C(=O)c2ccccc2C3=O)c(S(=O)(=O)O)c1", 87.8),
    ("CC(=O)c1ccc2c(c1)CCN2", 94.7),
    ("N#Cc1c(Oc2ccc([N+](=O)[O-])cc2)nc2sc3cc(Cl)ccc3n2c1=N", 83.6),
    ("COc1ccc(/C=C2\\C=C(c3ccccc3)N(CCc3ccccc3)C2=O)cc1OC", 70.6),
    ("Fc1ccc(Nc2nc(Nc3ccc(-c4nc5ccccc5[nH]4)cc3)c3cn[nH]c3n2)cc1", 1.66),
    ("CCOC(=O)c1sc2ccc(NCc3nc[nH]c3C)cc2c1NC(=O)c1cc(OC)c(OC)c(OC)c1", 80.1),
    ("CN1CCN(C(=O)[C@@]2(C)CC[C@]3(C)CC[C@]4(C)C(=CC[C@@H]5[C@@]6(C)C/C(=C/c7ccncc7)C(=O)C(C)(C)[C@@H]6CC[C@]54C)[C@@H]3C2)CC1", 12.8),
    ("CCOC(=O)c1nnn(C(Cc2ccccc2Cl)C(=O)OCC)c1C (centres undefined)", 96.3),
    ("COC(=O)Nc1nc2ccc(C(=O)C3CC3)cc2[nH]1", -19.7),
    ("CCCc1cc(=O)oc2c3c(c4c(c12)OC(C)(C)C=C4)O[C@@H](C)[C@H](C)C3=O", 56.1),
    ("Cc1cc(NS(=O)(=O)c2ccccc2)c(OS(=O)(=O)c2ccccc2)cc1C", 84.1),
    ("O=C1Nc2ccccc2SC1C1SC(=S)N(Cc2ccccc2)C1=O (centres undefined)", -21.7),
    ("O=C(CCCCCCCn1cc(-c2cccnc2)nn1)Nc1ccccc1-c1ccccc1", 30.5),
    ("COC(=O)/C(=C\\c1ccc(OC)cc1)C(=O)N1c2ccccc2Sc2ccccc21", 54.4),
    ("CC(C)OCCCNCC(=O)Nc1ccc(S(=O)(=O)c2ccc(NC(=O)CNCCCOC(C)C)cc2)cc1", 92.8),
    ("Clc1ccc(-c2nnc(Cn3ccnc3)o2)cc1", 112),
    ("CCNCCNc1cc(-c2ccc(C(F)(F)F)cc2)c(C#N)c2nc3cc(Cl)c(Cl)cc3n12", -41.6),
    ("CN(C)c1ccc(-c2cc(-c3ccc(Nc4nc(Nc5ccccc5)nc(Nc5ccc(Cl)cc5)n4)cc3)nc(N)n2)cc1", 34.1),
    ("CCc1cc(Cc2cc(CC)cc(C(C)(C)C)c2O)c(O)c(C(C)(C)C)c1", 7.4),
    ("CCOc1cc(N)ccc1C(=O)NCCCN(CC)CC", 95.9),
    ("O=C(NCc1cccnc1)c1cc(-c2csc3c(=O)cc(N4CCOCC4)oc23)cc2c1OCCO2", 9.21),
]
